- test.target: T1, Human C3 (Complement tech cat #A113c) (human, UniProt P01024 23-1663)
- T1 construct: Purified protein immobilised by amine coupling in the SPR assay; in the haemolysis assay it is the C3 of diluted human serum; Native C3 consists of a beta and an alpha chain cut from one precursor; also called C3 protein
- T1 sequence (P01024 23-1663 limits assumed): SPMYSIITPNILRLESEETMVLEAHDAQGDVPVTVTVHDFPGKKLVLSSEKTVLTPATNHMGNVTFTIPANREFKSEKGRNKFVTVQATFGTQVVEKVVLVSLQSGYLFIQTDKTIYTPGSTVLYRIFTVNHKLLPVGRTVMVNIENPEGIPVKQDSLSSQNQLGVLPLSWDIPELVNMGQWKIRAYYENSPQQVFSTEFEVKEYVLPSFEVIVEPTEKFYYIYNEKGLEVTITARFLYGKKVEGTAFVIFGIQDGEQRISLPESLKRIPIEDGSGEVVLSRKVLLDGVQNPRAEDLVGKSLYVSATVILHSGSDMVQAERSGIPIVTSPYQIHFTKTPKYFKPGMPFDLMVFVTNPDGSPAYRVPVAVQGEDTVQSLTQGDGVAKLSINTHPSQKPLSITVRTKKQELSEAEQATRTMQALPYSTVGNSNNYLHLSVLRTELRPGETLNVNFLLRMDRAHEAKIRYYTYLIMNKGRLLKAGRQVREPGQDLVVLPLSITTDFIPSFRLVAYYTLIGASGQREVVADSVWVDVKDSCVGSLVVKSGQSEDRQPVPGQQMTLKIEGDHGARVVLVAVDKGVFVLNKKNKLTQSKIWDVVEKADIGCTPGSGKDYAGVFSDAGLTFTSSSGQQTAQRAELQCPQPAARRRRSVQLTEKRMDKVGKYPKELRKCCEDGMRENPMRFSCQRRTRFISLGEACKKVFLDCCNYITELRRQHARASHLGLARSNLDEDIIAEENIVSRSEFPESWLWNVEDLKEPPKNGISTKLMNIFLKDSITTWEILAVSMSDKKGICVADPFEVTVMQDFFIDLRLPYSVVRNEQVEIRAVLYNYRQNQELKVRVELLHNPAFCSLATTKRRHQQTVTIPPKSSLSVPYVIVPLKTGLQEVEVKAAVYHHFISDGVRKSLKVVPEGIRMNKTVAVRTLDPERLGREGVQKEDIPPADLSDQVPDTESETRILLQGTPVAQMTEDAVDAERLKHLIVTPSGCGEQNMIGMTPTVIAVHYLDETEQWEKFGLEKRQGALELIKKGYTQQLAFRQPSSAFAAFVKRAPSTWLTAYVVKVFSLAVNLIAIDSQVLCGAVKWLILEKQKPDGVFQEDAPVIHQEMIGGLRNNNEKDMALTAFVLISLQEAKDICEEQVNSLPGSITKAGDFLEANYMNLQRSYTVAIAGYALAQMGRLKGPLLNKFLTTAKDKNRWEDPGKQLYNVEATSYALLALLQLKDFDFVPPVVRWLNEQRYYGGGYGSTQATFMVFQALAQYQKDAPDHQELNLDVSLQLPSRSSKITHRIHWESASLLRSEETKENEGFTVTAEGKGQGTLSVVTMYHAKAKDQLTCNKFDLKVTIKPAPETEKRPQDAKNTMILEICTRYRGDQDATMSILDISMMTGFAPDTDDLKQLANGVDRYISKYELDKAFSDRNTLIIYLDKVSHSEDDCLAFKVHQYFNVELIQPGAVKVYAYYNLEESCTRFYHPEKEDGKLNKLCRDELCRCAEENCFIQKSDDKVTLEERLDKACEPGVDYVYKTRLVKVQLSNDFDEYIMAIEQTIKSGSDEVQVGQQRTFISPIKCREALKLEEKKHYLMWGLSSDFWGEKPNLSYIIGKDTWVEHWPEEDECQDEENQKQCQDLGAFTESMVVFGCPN
- assay.info: SPR (Biacore T200), human C3 immobilised, peptide injected, 1:1 fit
Positions of bridges follow the written chain, without caps; N, C: chain ends. Non-standard residues stand in square brackets, D forms with d. Trp(1-Me) = Cn1cc(C[C@H](N)C(=O)O)c2ccccc21; AEEA = NCCOCCOCC(=O)O; Sar = CNCC(=O)O
quantity.kind: Kd

Example entries and their recorded answers appear below.
INSERT INTO results (binder, reported_value) VALUES
  ('Ac-SEYCI[Trp(1-Me)]QEWGEHRC[Sar]EGE-{AEEA-AEEA-K(γGlu-Gly-γGlu-17-carboxy-heptadecanoyl)-NH2} (disulfide 4-14) [Compound 125]', '71 nM'),
  ('Ac-EGSAICIWQDWGEHRCT-NH2 (disulfide 6-16; SMILES CC[C@H](C)[C@H](NC(=O)[C@H](C)NC(=O)[C@H](CO)NC(=O)CNC(=O)[C@H](CCC(=O)O)NC(C)=O)C(=O)N[C@H]1CSSC[C@@H](C(=O)N[C@H](C(N)=O)[C@@H](C)O)NC(=O)[C@H](CCCNC(=N)N)NC(=O)[C@H](Cc2c[nH]cn2)NC(=O)[C@H](CCC(=O)O)NC(=O)CNC(=O)[C@H](Cc2c[nH]c3ccccc23)NC(=O)[C@H](CC(=O)O)NC(=O)[C@H](CCC(N)=O)NC(=O)[C@H](Cc2c[nH]c3ccccc23)NC(=O)[C@H]([C@@H](C)CC)NC1=O) [Compound 29]', '21 nM');

Prompt: Value lookup for Kd; key = Ac-FCIWQDWGEHRCT-NH2 (disulfide 2-12; SMILES CC[C@H](C)[C@@H]1NC(=O)[C@@H](NC(=O)[C@H](Cc2ccccc2)NC(C)=O)CSSC[C@@H](C(=O)N[C@H](C(N)=O)[C@@H](C)O)NC(=O)[C@H](CCCNC(=N)N)NC(=O)[C@H](Cc2c[nH]cn2)NC(=O)[C@H](CCC(=O)O)NC(=O)CNC(=O)[C@H](Cc2c[nH]c3ccccc23)NC(=O)[C@H](CC(=O)O)NC(=O)[C@H](CCC(N)=O)NC(=O)[C@H](Cc2c[nH]c3ccccc23)NC1=O) [Compound 23]
Completion: 2.8 nM
